system: HepG2; experiment: Effective concentration against apolipoprotein A1 (ApoA1) from HepG2 cell using apolipoprotein secretion assay; type: functional, cell-based; conditions: Homo sapiens
measure-name: EC50 (µM)
Numbers only, in µM.

// `CCCCOP(=O)(CCCSc1nc2ccc(OCC)cc2s1)OCCCC` : EC50 value = 13.2

====

biological target: Microsomal triglyceride transfer protein large subunit (Bos taurus, UniProt P55156); test: Inhibitory activity against microsomal triglyceride transfer protein (MTP)
Sequence (P55156 whole entry): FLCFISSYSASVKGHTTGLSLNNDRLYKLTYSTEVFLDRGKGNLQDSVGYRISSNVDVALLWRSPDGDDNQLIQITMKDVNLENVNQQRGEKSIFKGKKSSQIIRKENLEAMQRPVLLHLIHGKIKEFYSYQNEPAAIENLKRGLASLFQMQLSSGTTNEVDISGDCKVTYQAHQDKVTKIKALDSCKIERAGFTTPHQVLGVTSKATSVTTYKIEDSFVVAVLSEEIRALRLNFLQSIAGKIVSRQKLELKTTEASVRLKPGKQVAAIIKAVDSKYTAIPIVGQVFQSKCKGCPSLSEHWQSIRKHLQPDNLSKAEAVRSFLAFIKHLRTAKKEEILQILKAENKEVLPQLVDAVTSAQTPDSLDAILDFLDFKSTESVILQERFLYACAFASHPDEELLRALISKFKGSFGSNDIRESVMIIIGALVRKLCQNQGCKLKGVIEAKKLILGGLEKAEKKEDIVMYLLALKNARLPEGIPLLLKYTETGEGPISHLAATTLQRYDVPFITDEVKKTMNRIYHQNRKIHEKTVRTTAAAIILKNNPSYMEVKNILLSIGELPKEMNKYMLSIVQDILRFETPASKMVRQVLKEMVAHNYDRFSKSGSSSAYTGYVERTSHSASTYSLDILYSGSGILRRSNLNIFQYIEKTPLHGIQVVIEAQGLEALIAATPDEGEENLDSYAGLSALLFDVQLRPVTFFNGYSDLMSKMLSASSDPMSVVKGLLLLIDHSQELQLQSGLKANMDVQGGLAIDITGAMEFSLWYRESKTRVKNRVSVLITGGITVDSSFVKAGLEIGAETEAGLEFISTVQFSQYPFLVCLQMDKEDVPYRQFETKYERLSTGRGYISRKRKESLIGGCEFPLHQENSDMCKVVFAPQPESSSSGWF
Classification by IC50 | ranges: lower band = under 0.1 µM, central band = from 0.1 µM up to 0.5 µM, upper band = 0.5 µM and over

Solved entries:
CCCCOP(=O)(CCCCC1(C(=O)OC)c2ccccc2-c2ccccc21)OCCCC	central band
CCCCNC(=O)C1(CCCCP(=O)(OCCCC)OCCCC)c2ccccc2-c2ccccc21	central band
CCCOP(=O)(CCCCC1(C(=O)NCC(F)(F)F)c2ccccc2-c2ccccc21)OCCC	lower band

stdin: Which category does the recorded IC50 put `CCCNC(=O)C1(CCCCP(=O)(OCC)OCC)c2ccccc2-c2ccccc21` in?
stdout: central band

stdin: Which category does the recorded IC50 put `CC(C)(C)COP(=O)(CCCCC1(C(=O)NCC(F)(F)F)c2ccccc2-c2ccccc21)OCC(C)(C)C` in?
stdout: lower band

stdin: Input `CC(C)OP(=O)(CCCCC1(C(=O)NCC(F)(F)F)c2ccccc2-c2ccccc21)OC(C)C` ; output its category
stdout: central band

stdin: Which category does the recorded IC50 put `O=C(NCC(F)(F)F)C1(CCCCP(=O)(OCc2cccnc2)OCc2cccnc2)c2ccccc2-c2ccccc21` in?
stdout: lower band

stdin: Entry `O=C1c2ccccc2CN1C1CCN(CCC(c2ccccc2)c2ccccc2)CC1` belongs to which category?
stdout: upper band

====

target: Microsomal triglyceride transfer protein large subunit (Bos taurus); assay: Inhibitory activity against microsomal triglyceride transfer protein (MTP)
Can you tell me pIC50 for the items I'm about to list?
One number for each entry, as −log10 of the molar value.

CCCCOP(=O)(CCCCC1(C(=O)NCCN2CCOCC2)c2ccccc2-c2ccccc21)OCCCC	6.30

For each listed entry, give its pIC50.
1. CCCCOP(=O)(CCCSc1nc2ccc(OCC)cc2o1)OCCCC
2. CCCCOP(=O)(CCCCC1(C(=O)NCCc2ccc(OC)cc2)c2ccccc2-c2ccccc21)OCCCC
3. CCCCOP(=O)(CCCCC1(C(=O)NCc2ccccc2)c2ccccc2-c2ccccc21)OCCCC
4. CCCCOP(=O)(CCCSc1nc2ccc(OCC)cc2s1)OCCCC

stdout:
1: 5.30; 2: 7.68; 3: 6.60; 4: 5.35

Lab note: each compound below needs its pIC50 filled in.
1. CCCCOP(=O)(CCCCSc1nc2ccc(OCC)cc2s1)OCCCC
2. CCCCOP(=O)(CCCCC1(C(=O)NCc2ccccn2)c2ccccc2-c2ccccc21)OCCCC
3. C=CCC1(C(=O)NCC)c2ccccc2-c2ccccc21
4. O=C(NCC(F)(F)F)C1(CCCCP(=O)(OCCCc2ccccn2)OCCCc2ccccn2)c2ccccc2-c2ccccc21
5. CCCCOP(=O)(CCCCCC1(C(=O)NCC(F)(F)F)c2ccccc2-c2ccccc21)OCCCC
6. CCCCOP(=O)(CCCSc1nc2cc(OCC)ccc2[nH]1)OCCCC

stdout:
4.92
6.33
5.66
7.60
7.19
5.00
